Please provide measured protein stability index for the entries that follow.
B1: SPATS1 (parent)
chain: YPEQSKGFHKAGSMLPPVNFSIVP

Variants of: B1
Experiment: protein stability index of a GFP-peptide fusion (GPS, HEK-293T) (PSI 1-6); higher = more stable;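 note: lentivirally expressed fusions sorted by FACS into six bins by GFP to DsRed ratio, PSI derived from sequencing read proportions per bin multiplied by bin number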
Conditions: c terminus: a fixed tail appended
Simply state the number, no unit and no words.

protein stability index for `G12V` ?
1.79

protein stability index for `E3N` ?
2.39

protein stability index for `S21L` ?
2.08

protein stability index for `M14N` ?
2.37

protein stability index for `G7Q` ?
1.73

protein stability index for `F8H` ?
3.07

protein stability index for `H9E` ?
2.81

protein stability index for `Y1H` ?
3.18

protein stability index for `P2S` ?
2.43

protein stability index for `K10I` ?
1.7

protein stability index for `F20S` ?
2.14

protein stability index for `P17Y` ?
1.8

protein stability index for `G12A` ?
1.76

protein stability index for `L15K` ?
1.72

protein stability index for `E3P` ?
2.09

protein stability index for `F8N` ?
3.83

protein stability index for `A11V` ?
1.67

protein stability index for `A11E` ?
2.78

protein stability index for `G7K` ?
2.39

protein stability index for `A11R` ?
2.33

protein stability index for `P17T` ?
1.59

protein stability index for `S5I` ?
2.2

These measurements were taken from the supplement of paper PMC10567573.
